conditions: 1 μM, 30 minutes, 37° C., NADPH
Catalogue of compounds with associated MS(Microsomal Stability) (%) rat

As a guide, the following entries are already answered.
Compound	MS(Microsomal Stability) (%) rat
CN1CCN(c2ccc(/C(=C(/CCCO)c3ccccc3)c3ccc(N)cc3)cc2)CC1 [Compound 26a]	46.7%
CC(C)N1CCC(c2ccc(/C(=C(/CCCO)c3ccccc3)c3cccc(O)c3)cc2)CC1 [Compound 22m]	53.5%
OCCC/C(=C(\c1ccc(O)cc1)c1ccc(OCCN2CCOCC2)cc1)c1ccccc1 [Compound 6c]	45.2%

IN: Could you tell me which MS(Microsomal Stability) (%) rat is on file for CC(C)N1CCC(c2ccc(/C(=C(/CCCO)c3ccccc3)c3ccc(O)cc3)cc2)CC1 [Compound 22k] ?
OUT: 69.0%

IN: Could you tell me which MS(Microsomal Stability) (%) rat is on file for OCCC/C(=C(\c1ccc(O)cc1)c1ccc(OCCN2C[C@H]3C[C@H]3[C@H]2CO)cc1)c1ccccc1 [Compound 38d] ?
OUT: 11.7%

IN: Could you tell me which MS(Microsomal Stability) (%) rat is on file for CC(C)N1CCN(c2ccc(/C(=C(/CCCO)c3ccccc3)c3ccc(Br)cc3)cc2)CC1 [Compound 18h] ?
OUT: 74.2%

IN: Could you tell me which MS(Microsomal Stability) (%) rat is on file for Cc1ccc(/C(=C(\CCCO)c2ccccc2)c2ccc(N3CCNCC3)cc2)cc1 [Compound 20b] ?
OUT: 71.5%

IN: Could you tell me which MS(Microsomal Stability) (%) rat is on file for OCCC/C(=C(\c1ccc(O)cc1)c1ccc(C2=CCN(C3CC3)CC2)cc1)c1ccccc1 [Compound 22j] ?
OUT: 65.5%

* * *

Catalogue of molecules with associated CYP inhibition (% of control) 2D6
Molecular target: UniProt:P10635
Sequence (P10635 whole entry): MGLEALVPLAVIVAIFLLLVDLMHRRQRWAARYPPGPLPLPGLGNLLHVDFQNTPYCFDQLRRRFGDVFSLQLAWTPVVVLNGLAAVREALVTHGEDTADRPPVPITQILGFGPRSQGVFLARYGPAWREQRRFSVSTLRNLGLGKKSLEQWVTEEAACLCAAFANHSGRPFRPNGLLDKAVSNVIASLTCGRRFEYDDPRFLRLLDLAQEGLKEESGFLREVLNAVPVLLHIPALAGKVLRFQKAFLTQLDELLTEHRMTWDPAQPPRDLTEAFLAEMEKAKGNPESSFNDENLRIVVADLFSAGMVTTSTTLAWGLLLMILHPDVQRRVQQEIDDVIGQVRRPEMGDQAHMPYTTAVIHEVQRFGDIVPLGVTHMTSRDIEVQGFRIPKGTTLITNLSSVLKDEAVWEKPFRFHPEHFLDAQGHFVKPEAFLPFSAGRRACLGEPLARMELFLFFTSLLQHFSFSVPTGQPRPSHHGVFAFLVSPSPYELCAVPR
Assay: Cytochrome P450 activity inhibition, CYP2D6
Type: in vitro ADME
Conditions: 10 μM, human liver microsomes, Dextromethorphan substrate
From the text: 1) Cytochrome P450 (CYP450) Activity Inhibition Evaluation

As a guide, the following entries are already answered.
Molecule	CYP inhibition (% of control) 2D6
OCCC/C(=C(\c1ccc(O)cc1)c1ccc(C2CN(C3CC3)C2)cc1)c1ccccc1 [Compound 22d]	82.5 % of control
OCCC/C(=C(/c1ccc(C2CCN(C3CC3)CC2)cc1)c1cccc(O)c1)c1ccccc1 [Compound 22r]	91.8 % of control
OCCC/C(=C(\c1ccc(O)cc1)c1ccc(N2CCN(C3CCCC3)CC2)cc1)c1ccccc1 [Compound 22n]	82.6 % of control
CN1CCN(c2ccc(/C(=C(/CCCO)c3ccccc3)c3ccc(O)cc3)cc2)CC1 [Compound 18d]	98.4 % of control
CC(C)N1CCC(c2ccc(/C(=C(/CCCO)c3ccccc3)c3cccc(O)c3)cc2)CC1 [Compound 22h]	69.1 % of control

IN: Could you tell me which CYP inhibition (% of control) 2D6 is on file for CC(C)N1CCN(c2ccc(/C(=C(/CCCO)c3ccccc3)c3ccc(Br)cc3)cc2)CC1 [Compound 18e] ?
OUT: >100 % of control

IN: Could you tell me which CYP inhibition (% of control) 2D6 is on file for CN1CCC(c2ccc(/C(=C(/CCCO)c3ccccc3)c3cccc(O)c3)cc2)CC1 [Compound 22ac] ?
OUT: 86.2 % of control

IN: Could you tell me which CYP inhibition (% of control) 2D6 is on file for CN1CCCC1CCOc1ccc(/C(=C(/CCCO)c2ccccc2)c2ccc(Br)cc2)cc1 (stereo not shown) [Compound 13d] ?
OUT: >100 % of control

IN: Could you tell me which CYP inhibition (% of control) 2D6 is on file for CC(C)N1CCN(c2ccc(/C(=C(/CCCO)c3ccccc3)c3ccc(Br)cc3)cc2)CC1 [Compound 18h] ?
OUT: 71.5 % of control

IN: Could you tell me which CYP inhibition (% of control) 2D6 is on file for OCCC/C(=C(\c1ccc(O)cc1)c1ccc(OCCN2CCC[C@@H]2CO)cc1)c1ccccc1 [Compound 38c] ?
OUT: 54.3 % of control

IN: Could you tell me which CYP inhibition (% of control) 2D6 is on file for OCCC/C(=C(/c1ccc(C2=CCN(C3CC3)CC2)cc1)c1cccc(O)c1)c1ccccc1 [Compound 22l] ?
OUT: 99 % of control

IN: Could you tell me which CYP inhibition (% of control) 2D6 is on file for CC(C)(C)OC(=O)N1CC(c2ccc(/C(=C(/CCCO)c3ccccc3)c3ccc(O)cc3)cc2)C1 [Compound 18t] ?
OUT: 98 % of control

IN: Could you tell me which CYP inhibition (% of control) 2D6 is on file for OCCC/C(=C(\c1ccc(O)cc1)c1ccc(N2CCN(C3CCC3)CC2)cc1)c1ccccc1 [Compound 22q] ?
OUT: 77.6 % of control

* * *

details: 1 μM, 30 minutes, 37° C., NADPH
Reported metric: MS(Microsomal Stability) (%) dog
Form entry: value (%) — number only.

As a guide, the following entries are already answered.
Compound	Reported metric	Number
OCCC/C(=C(\c1ccc(O)cc1)c1ccc(N2CCN(C3CCCC3)CC2)cc1)c1ccccc1 [Compound 22n]	MS(Microsomal Stability) (%) dog	72.0
CC(=O)Nc1ccc(/C(=C(\CCCO)c2ccccc2)c2ccc(C3CCN(C4CC4)CC3)cc2)cc1 [Compound 27c]	MS(Microsomal Stability) (%) dog	81.2
CC(C)N1CCN(c2ccc(/C(=C(/CCCO)c3ccccc3)c3ccc(N)cc3)cc2)CC1 [Compound 26b]	MS(Microsomal Stability) (%) dog	40.6

Kindly consider the entry below.
IN: Could you tell me which MS(Microsomal Stability) (%) dog is on file for CC(C)N1CCC(c2ccc(/C(=C(/CCCO)c3ccccc3)c3ccc(O)cc3)cc2)C1 (racemic) [Compound 22s] ?
OUT: 35.4

* * *

assay: in vivo; assay type: in vivo; details: rat, IV, 1 mg/kg
Catalogue of compounds with associated log10 AUCall
Scale: log10; quantity: AUCall; unit before log: μMh

Compound	log10 AUCall
Cc1ccc(/C(=C(\CCCO)c2ccccc2)c2ccc(N3CCN(C)CC3)cc2)cc1 [Compound 18f]	-0.55
Cc1ccc(/C(=C(\CCCO)c2ccccc2)c2ccc(N3CCN(C(C)C)CC3)cc2)cc1 [Compound 18b]	-0.24
CC(C)N1CCC(c2ccc(/C(=C(/CCCO)c3ccccc3)c3ccc(O)cc3)cc2)C1 (racemic) [Compound 22s]	-0.36

Kindly consider the entry below.
IN: Could you tell me which log10 AUCall is on file for CC(C)N1CCN(c2ccc(C(=C(CCCO)c3ccccc3)c3ccc(O)cc3)cc2)CC1 [Compound 18a] ?
OUT: -0.38

* * *

molecular target: hERG channel (Homo sapiens (Human)); assay: biochemical
Reported metric: IC50

Molecule	Reported metric	Result
OCCC/C(=C(\c1ccc(O)cc1)c1ccc(OCCN2CC3CC3C2)cc1)c1ccccc1 (stereo not drawn) [Compound 38a]	IC50	16.1 µM
CN1CCC[C@@H]1COc1ccc(/C(=C(/CCCO)c2ccccc2)c2ccc(O)cc2)cc1 [Compound 6i]	IC50	> 30 µM
CN1CCN(c2ccc(/C(=C(/CCCO)c3ccccc3)c3ccc(N)cc3)cc2)CC1 [Compound 26a]	IC50	> 30 µM

IN: Field: IC50 (hERG channel (Homo sapiens (Human))). Entry: Nc1ccc(/C(=C(\CCCO)c2ccccc2)c2ccc(C3CCN(C4CC4)CC3)cc2)cc1 [Compound 26d]
OUT: 26 µM

IN: Field: IC50 (hERG channel (Homo sapiens (Human))). Entry: OCCC/C(=C(\c1ccc(O)cc1)c1ccc(OCCN2CCCCC2)cc1)c1ccccc1 [Compound 6d]
OUT: > 30 µM

IN: Field: IC50 (hERG channel (Homo sapiens (Human))). Entry: OCCC/C(=C(\c1ccc(O)cc1)c1ccc(OCCN2CC2)cc1)c1ccccc1 [Compound 6f]
OUT: > 30 µM

* * *

Catalogue of compounds with associated MS(Microsomal Stability) (%) rat
conditions: 1 μM, 30 minutes, 37° C., NADPH
Form entry: value (%) — number only.

As a guide, the following entries are already answered.
Compound	MS(Microsomal Stability) (%) rat
CN1CCN(c2ccc(/C(=C(/CCCO)c3ccccc3)c3ccc([N+](=O)[O-])cc3)cc2)CC1 [Compound 18c]	72.8
CC(C)N1CCN(c2ccc(/C(=C(/CCCO)c3ccccc3)c3ccc([N+](=O)[O-])cc3)cc2)CC1 [Compound 18g]	85.3
CC(C)N1CCC(c2ccc(/C(=C(/CCCO)c3ccccc3)c3ccc(O)cc3)cc2)C1 (racemic) [Compound 22s]	75.6

IN: Could you tell me which MS(Microsomal Stability) (%) rat is on file for Cc1ccc(/C(=C(\CCCO)c2ccccc2)c2ccc(C3CCN(C)CC3)cc2)cc1 [Compound 22f] ?
OUT: 80.0

IN: Could you tell me which MS(Microsomal Stability) (%) rat is on file for CC(C)N1CCN(c2ccc(/C(=C(/CCCO)c3ccccc3)c3cccc(O)c3)cc2)CC1 [Compound 18k] ?
OUT: 54.9

IN: Could you tell me which MS(Microsomal Stability) (%) rat is on file for OCCC/C(=C(\c1ccc(Br)cc1)c1ccc(N2CCNCC2)cc1)c1ccccc1 [Compound 20a] ?
OUT: 84.7

IN: Could you tell me which MS(Microsomal Stability) (%) rat is on file for OCCC/C(=C(\c1ccc(O)cc1)c1ccc(N2CCNCC2)cc1)c1ccccc1 [Compound 20c] ?
OUT: 53.7
